- TESTED ON: human serotonin receptor 2C (5-HT2c) (Homo sapiens, UniProt P28335)
- Sequence (P28335 33-458): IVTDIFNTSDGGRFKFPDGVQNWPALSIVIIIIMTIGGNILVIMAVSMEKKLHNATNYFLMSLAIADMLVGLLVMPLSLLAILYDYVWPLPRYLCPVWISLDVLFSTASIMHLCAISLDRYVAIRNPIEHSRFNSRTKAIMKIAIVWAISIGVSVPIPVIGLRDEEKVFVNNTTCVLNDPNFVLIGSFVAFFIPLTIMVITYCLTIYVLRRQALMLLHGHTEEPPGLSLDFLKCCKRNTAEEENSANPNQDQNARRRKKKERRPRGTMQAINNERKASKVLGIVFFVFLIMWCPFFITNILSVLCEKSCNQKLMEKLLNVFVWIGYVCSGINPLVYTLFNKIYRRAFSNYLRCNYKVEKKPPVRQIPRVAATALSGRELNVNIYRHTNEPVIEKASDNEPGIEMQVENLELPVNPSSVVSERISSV
- ASSAY INFO: 2C antagonist activity of selected compounds
REPORTED METRIC: IC50

Ask: I would be grateful if you could share the reported IC50 for Oc1ccc2[nH]c3c(-c4cncnc4)nccc3c2c1 .
Reply: > 10 µM
